This listing pairs compounds with measured pIC50.
Biological target: CETP (Homo sapiens, UniProt P11597)
Construct: made in house; host or cells: CHO cells (serum-free conditioned medium)
Sequence (P11597 18-493): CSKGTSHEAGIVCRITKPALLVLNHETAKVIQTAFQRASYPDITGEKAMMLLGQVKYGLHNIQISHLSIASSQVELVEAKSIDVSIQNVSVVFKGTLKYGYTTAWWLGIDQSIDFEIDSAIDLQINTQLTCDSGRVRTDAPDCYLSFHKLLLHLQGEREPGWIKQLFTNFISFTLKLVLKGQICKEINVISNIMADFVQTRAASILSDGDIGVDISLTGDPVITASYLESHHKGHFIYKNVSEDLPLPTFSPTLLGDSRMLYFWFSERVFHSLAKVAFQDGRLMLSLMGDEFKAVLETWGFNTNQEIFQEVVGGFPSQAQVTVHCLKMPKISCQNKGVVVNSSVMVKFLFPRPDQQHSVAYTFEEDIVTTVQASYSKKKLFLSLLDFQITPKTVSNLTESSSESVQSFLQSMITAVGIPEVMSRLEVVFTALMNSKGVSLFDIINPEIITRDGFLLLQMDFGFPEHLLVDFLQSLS
Assay: CETP activity in vitro: transfer of [3H]CE from HDL donor to LDL acceptor particles
Type: biochemical
Details: IC50(μm), 50% inhibition of [3H]CE transfer from HDL to LDL, 2 hours at 37° C.
Please keep in mind that pIC50 is minus log10 of the molar concentration; only the number is needed.

Use these answered entries as a reference point.
COC(=O)c1c(C(F)F)nc(C(F)(F)F)c(C2SCCS2)c1CC(C)C [Compound 61]: 4.22
CCCc1c(C(=O)OC)c(C(F)F)nc(C(F)(F)F)c1C(=O)SCC [Compound 62]: 4.22
COC(=O)c1c(C(F)F)nc(C(F)(F)F)c(-n2cccc2)c1C1CCC1 [Compound 70]: 4.19
COC(=O)c1c(C(F)F)nc(C(F)(F)F)c(N=C(SC)SC)c1CC(C)C [Compound 42]: 4.30
COC(=O)c1c(C(F)F)nc(C(F)(F)F)c(C2OCCCO2)c1CC(C)C [Compound 59]: 4.26

Value lookup for pIC50; key = COC(=O)c1c(C(F)F)nc(C(F)(F)F)c(N=COCC2CO2)c1CC(C)C (centres unmarked) [Compound 30]
4.40

Value lookup for pIC50; key = CC(C)Cc1c(C(=O)OC(C)(C)C)c(C(F)F)nc(C(F)(F)F)c1C(=O)OC(C)(C)C [Compound 9]
4.70

Value lookup for pIC50; key = COC(=O)c1c(C(F)F)nc(C(F)(F)F)c(C(=O)Sc2ccccc2C(C)C)c1CC(C)C [Compound 157]
4.22

Value lookup for pIC50; key = COC(=O)c1c(C(F)(F)F)nc(C(F)(F)F)c(C2=NCCS2)c1CC(C)C [Compound 12]
4.60

Value lookup for pIC50; key = CCOC(=O)c1c(C(F)(F)F)nc(C(F)F)c(C(=O)OC)c1S [Compound 2]
5.52

Value lookup for pIC50; key = COC(=O)c1c(C(F)F)nc(C(F)(F)F)c(C#C[Si](C)(C)C)c1CC(C)C [Compound 19]
4.46

Value lookup for pIC50; key = COC(=O)c1c(C(F)F)nc(C(F)(F)F)c(C(=O)Sc2ccccc2OC)c1CC(C)C [Compound 153]
4.00

Value lookup for pIC50; key = COC(=O)c1c(C(F)F)nc(C(F)(F)F)c(C(=O)Sc2cccc(OC)c2)c1CC(C)C [Compound 154]
4.00

----------
Biological target: CETP (Homo sapiens)
Construct: made in house; host or cells: CHO cells (serum-free conditioned medium)
Assay: CETP activity in vitro: transfer of [3H]CE from HDL donor to LDL acceptor particles
Type: biochemical
Conditions: Table 7, compounds of formula T-7; read-out: IC50
Method: The ability of compounds to inhibit CETP were assessed using an in vitro assay that measured the rate of transfer of radiolabeled cholesteryl ester ([^3H]CE) from HDL donor particles to LDL acceptor particles. Details of the assay are provided by Glenn et al. (“Quantification of Cholesteryl Ester Transfer Protein (CETP): A) CETP Activity and B) Immunochemical Assay of CETP Protein,” Meth. Enzymol., Glenn and Melton (Meth. Enzymol., 263, 339-351 (1996), which is incorporated herein by reference). […]
Assay Metric: IC50 (µM)
Write it as a number; the unit µM goes unstated.

Use these answered entries as a reference point.
COC(=O)c1c(C(F)F)nc(C(F)(F)F)c(SCc2c3ccccc3cc3ccccc23)c1CC(C)C: 30
COC(=O)c1c(C(F)F)nc(C(F)(F)F)c(SCc2ccc(Cl)cc2Cl)c1CC(C)C: 30

Value lookup for IC50; key = COC(=O)c1c(C(F)F)nc(C(F)(F)F)c(SCc2cc(Cl)cc3c2OCOC3)c1CC(C)C
30

Value lookup for IC50; key = COC(=O)c1c(C(F)F)nc(C(F)(F)F)c(SCc2ccc(OC)cc2)c1CC(C)C
40
